ASSAY_DETAILS: Cmax in NOD SCID mouse at 200 mg/kg, po
Type: ADME, organism-based
STUDY_CONDITIONS: in vivo
REPORTED_ENDPOINT: Cmax (µM)
Numbers only, in µM.

The molecule listed as `O=C(Nc1cc(Cl)cc(Cl)c1)Nc1nc2ccc([N+](=O)[O-])cc2s1` has a reported Cmax of 5.2

* * *

ASSAY_DETAILS: AUC (0 to infinity) in NOD SCID mouse at 200 mg/kg, po
Format: ADME, organism-based
STUDY_CONDITIONS: in vivo
REPORTED_ENDPOINT: AUC(0-inf) (ng·h/mL)
Give bare numbers, in ng·h/mL.

The molecule listed as `O=C(Nc1cc(Cl)cc(Cl)c1)Nc1nc2ccc([N+](=O)[O-])cc2s1` has a reported AUC(0-inf) of 19300

* * *

ASSAY_DETAILS: Half-life in NOD SCID mouse at 200 mg/kg, po
Format: ADME, organism-based
STUDY_CONDITIONS: in vivo
REPORTED_ENDPOINT: half-life (h)
Answers are plain numbers, in h.

The compound listed as `O=C(Nc1cc(Cl)cc(Cl)c1)Nc1nc2ccc([N+](=O)[O-])cc2s1` has a reported half-life of 2.7

* * *

ASSAY_DETAILS: Stability in human microsomes assessed as compound remaining measured after 1 hrs
Assay type: ADME, Microsome
STUDY_CONDITIONS: read-out: Stability
REPORTED_ENDPOINT: remaining at 1 h (%)
One number for each entry, in %.

The molecule listed as `O=C(Nc1cc(Cl)cc(Cl)c1)Nc1nc2ccc([N+](=O)[O-])cc2s1` has a reported remaining at 1 h of 71

* * *

Tested on: CAL-27
ASSAY_DETAILS: Antiproliferative activity against human CAL-27 cells incubated for 48 hrs by XTT assay
Format: functional, cell-based
STUDY_CONDITIONS: CAL-27, 48 h
REPORTED_ENDPOINT: IC50 (µM)
Numbers only, in µM.

> print(dat)
                               entry.smiles  quantitative.readout
1  Cc1noc(C)c1-c1ccc2nc(NC(=O)Nc3cccc(Cl)c3)sc2c1                     1
2  O=C(Nc1nc2ccc([N+](=O)[O-])cc2s1)Nc1ccccc1Cl                     8
3  Cc1nn(C)cc1-c1ccc2nc(NC(=O)Nc3cccc(Cl)c3)sc2c1                     7

The compound listed as `O=C(Nc1cc(Cl)cc(Cl)c1)Nc1nc2ccc([N+](=O)[O-])cc2s1` has a reported IC50 of 2.5

* * *

ASSAY_DETAILS: Half-life in NOD SCID mouse at 50 mg/kg, po
Assay type: ADME, organism-based
STUDY_CONDITIONS: in vivo
REPORTED_ENDPOINT: half-life (h)
One number for each entry, in h.

The compound listed as `O=C(Nc1cc(Cl)cc(Cl)c1)Nc1nc2ccc([N+](=O)[O-])cc2s1` has a reported half-life of 1.8

* * *

ASSAY_DETAILS: Stability in human plasma assessed as half-life
Type: ADME, cell-free
REPORTED_ENDPOINT: half-life

The molecule listed as `O=C(Nc1cc(Cl)cc(Cl)c1)Nc1nc2ccc([N+](=O)[O-])cc2s1` has a reported half-life of > 4.82 h
